Target: wild type PRC2 (wtPRC2) complex (Homo sapiens)
Sequence (O75530 whole entry): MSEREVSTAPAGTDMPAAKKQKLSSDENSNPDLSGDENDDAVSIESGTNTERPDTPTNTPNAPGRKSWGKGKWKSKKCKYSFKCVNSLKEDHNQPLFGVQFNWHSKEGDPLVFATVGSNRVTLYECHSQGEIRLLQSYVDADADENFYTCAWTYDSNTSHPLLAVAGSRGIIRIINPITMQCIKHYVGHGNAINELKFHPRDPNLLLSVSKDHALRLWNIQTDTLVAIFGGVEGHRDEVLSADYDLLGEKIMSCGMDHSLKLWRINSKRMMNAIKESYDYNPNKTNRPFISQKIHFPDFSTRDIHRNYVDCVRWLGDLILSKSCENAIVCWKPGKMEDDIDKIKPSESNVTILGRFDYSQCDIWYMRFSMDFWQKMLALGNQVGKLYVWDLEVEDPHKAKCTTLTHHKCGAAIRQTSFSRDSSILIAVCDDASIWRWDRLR
Sequence (Q15910 whole entry partner): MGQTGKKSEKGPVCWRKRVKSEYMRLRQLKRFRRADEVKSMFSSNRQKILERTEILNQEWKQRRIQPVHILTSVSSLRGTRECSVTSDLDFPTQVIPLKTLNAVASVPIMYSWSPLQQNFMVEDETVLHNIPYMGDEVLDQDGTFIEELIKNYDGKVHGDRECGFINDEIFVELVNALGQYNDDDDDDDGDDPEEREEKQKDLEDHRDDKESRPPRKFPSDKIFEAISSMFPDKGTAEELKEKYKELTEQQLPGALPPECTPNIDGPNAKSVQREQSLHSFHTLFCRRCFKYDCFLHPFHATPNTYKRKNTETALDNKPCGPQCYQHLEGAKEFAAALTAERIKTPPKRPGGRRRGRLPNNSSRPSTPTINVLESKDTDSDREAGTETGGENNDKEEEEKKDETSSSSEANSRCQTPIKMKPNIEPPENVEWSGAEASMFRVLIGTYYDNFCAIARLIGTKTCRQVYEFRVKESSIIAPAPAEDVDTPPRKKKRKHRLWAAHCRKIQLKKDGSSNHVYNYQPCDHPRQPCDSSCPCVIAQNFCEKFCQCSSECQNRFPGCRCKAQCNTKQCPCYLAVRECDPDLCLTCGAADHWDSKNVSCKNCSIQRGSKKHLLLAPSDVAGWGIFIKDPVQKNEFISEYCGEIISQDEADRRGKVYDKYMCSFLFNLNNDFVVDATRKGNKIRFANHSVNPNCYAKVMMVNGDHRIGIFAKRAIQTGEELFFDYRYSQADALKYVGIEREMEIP
Sequence (Q15022 whole entry partner): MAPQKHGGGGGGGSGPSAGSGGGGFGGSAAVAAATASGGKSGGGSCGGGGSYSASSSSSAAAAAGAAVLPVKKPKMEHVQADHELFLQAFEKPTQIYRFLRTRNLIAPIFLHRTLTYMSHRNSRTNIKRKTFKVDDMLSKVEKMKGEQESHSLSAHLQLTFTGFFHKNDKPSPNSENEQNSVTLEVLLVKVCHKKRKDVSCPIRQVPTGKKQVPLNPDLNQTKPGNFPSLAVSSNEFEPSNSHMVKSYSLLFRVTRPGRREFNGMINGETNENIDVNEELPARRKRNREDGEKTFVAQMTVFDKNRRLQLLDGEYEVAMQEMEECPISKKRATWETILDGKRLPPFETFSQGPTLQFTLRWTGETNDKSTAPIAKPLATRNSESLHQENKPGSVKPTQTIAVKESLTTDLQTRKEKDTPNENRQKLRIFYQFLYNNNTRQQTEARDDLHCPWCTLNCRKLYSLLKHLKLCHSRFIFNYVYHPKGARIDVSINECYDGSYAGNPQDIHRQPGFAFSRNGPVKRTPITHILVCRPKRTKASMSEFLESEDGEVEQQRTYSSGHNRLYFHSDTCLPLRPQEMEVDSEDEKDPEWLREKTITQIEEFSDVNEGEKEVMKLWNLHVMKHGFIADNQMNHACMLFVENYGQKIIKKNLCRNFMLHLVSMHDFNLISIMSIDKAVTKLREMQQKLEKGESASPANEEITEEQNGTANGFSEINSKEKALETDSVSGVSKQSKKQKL
Sequence (Q09028 whole entry partner): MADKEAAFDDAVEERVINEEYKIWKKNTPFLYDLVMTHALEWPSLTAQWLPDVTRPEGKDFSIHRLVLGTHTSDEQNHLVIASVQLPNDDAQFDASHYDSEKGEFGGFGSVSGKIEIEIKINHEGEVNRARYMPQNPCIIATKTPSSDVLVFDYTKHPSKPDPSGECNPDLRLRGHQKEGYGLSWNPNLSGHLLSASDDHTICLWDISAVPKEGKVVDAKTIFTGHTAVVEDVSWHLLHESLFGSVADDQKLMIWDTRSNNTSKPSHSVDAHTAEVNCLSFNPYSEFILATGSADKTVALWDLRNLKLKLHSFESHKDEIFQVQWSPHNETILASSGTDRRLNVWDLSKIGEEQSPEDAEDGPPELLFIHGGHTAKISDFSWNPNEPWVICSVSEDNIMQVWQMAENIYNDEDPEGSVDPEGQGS
Sequence (Q6ZN18 whole entry partner): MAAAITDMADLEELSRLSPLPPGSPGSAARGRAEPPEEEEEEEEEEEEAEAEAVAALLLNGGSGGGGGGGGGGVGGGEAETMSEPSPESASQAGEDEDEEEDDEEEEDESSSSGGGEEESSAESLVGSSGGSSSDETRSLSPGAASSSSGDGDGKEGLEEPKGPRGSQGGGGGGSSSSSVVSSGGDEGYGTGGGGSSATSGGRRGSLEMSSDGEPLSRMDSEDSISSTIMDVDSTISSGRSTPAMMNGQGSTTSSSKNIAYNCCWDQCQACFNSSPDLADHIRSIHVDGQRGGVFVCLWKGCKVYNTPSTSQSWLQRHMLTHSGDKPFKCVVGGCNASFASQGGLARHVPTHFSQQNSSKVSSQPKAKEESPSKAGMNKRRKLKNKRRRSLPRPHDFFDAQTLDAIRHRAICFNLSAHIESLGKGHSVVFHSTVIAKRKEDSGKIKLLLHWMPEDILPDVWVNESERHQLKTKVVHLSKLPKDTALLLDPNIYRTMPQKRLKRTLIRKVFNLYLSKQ
Assay: EED LC-MS assay (SAH production by PRC2)
Type: biochemical
Conditions: read-out: (b) IC50, EED LC-MS Qualified
property_label: pIC50
In plain terms, pIC50 is the concentration in mol/L turned into minus its base-10 logarithm.

The compound identified as `COc1ccccc1CNc1ccc(-c2ccc(CN3CC(F)C3)cc2)c2nncn12` registered its pIC50 at 6.60

The compound identified as `COc1ccccc1CNc1ccc(-c2ccc(C(=O)N(C)C)cc2F)c2nncn12` registered its pIC50 at 6.56

The compound identified as `COc1cccc(F)c1CNc1ccc(-c2ccnn2C)c2nncn12` registered its pIC50 at 7.95

The compound identified as `COc1cccc(F)c1CNc1ccc(-c2cccc(S(C)(=O)=O)c2)c2nncn12` registered its pIC50 at 6.97

The compound identified as `COc1ccccc1CNc1ccc(-c2ccc(S(N)(=O)=O)cc2)c2nncn12` registered its pIC50 at 6.63

The compound identified as `COc1ccccc1CNc1ccc(-c2ccnnc2)c2nncn12` registered its pIC50 at 6.30

The compound identified as `COc1ccccc1CNc1ccc(-c2ccncc2)c2nncn12` registered its pIC50 at 7.04

The compound identified as `COc1ccccc1CNc1ccc(-c2ccnc(N3CCN(C)CC3)c2)c2nncn12` registered its pIC50 at 6.71

The compound identified as `COc1ccccc1CNc1ccc(-c2ccc(CN3CCC3)cc2)c2nncn12` registered its pIC50 at 7.06
